Tested on: VDR:RXRa (NR concentration 270 nM, RXRa partner concentration 90 nM)
experiment: PBM binding z-score (relative to random genomic background probes); higher = stronger binding; sequences stand for … in GC…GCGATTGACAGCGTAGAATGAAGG
This listing pairs sequences with measured PBM binding z-score.

Example results:
1. ATCTCTAGGTAAAGTTCAATGAAAGATCGATAGA :: 2.5
2. ATCTCGAGGTAAAGATAGTTCAGTGAATGCAAAT :: 1.23

Incoming: PBM binding z-score for CCGACTGGGGCAGAAAGGTTAACATACCATCCGG ?
Outgoing: 1.12

Incoming: Would you kindly share the measured PBM binding z-score for CCTGCTAGGTCATGATCAGCTAATCTACAGTATG ?
Outgoing: 1.41

Incoming: // returns reported PBM binding z-score for input GCCACTGGGGCAAAGCAGGTTACCATAAGGTTGG
Outgoing: -0.0502

Incoming: Dear colleague, I am looking for the recorded PBM binding z-score of the following sequence: AGAACGAGGGCACGCTGAGATGATAGCAGAGTAG
Outgoing: 0.702

----------
System: LXRb homodimer (NR concentration 270 nM)
experiment: PBM binding z-score (relative to random genomic background probes); higher = stronger binding; sequences stand for … in GC…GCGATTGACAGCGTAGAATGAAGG
measured endpoint: PBM binding z-score

Known results for sequences:
1) AATACAGGGCCACTAGGCCAGAGTAGGTACGAAT :: -0.877
2) AGTCAATGTTCATCTAGGTAACGTAAGATATGCT :: -0.311
3) ATCGAAAGGTTGTGAGGTGAGTATACAGAAAGGC :: 0.139
4) CAACCTAGGTCAAAGGTCAAAGTCGAGCCAACCA :: 3.03
5) ATCTCTAGGTAAAGTTCAGTGATAGATCGATAGA :: 1.34
6) CCGACTGGGGCAAGGTTGCCATAACGCACAGCCA :: -1.05
7) AGAACGAGGGCAATGAGTTGATATCACGGGTGGC :: -0.245
8) CCAGACAGGTGAAAGGTAACTCGGTCTGGTACGC :: -0.561

Incoming: // query PBM binding z-score value for entry CTCGAAAGGTCGTGCTCAGTTGAGTATACCAAAC
Outgoing: 0.338

Incoming: Requested field: PBM binding z-score. Item: ACTTACGGGTCAACGAGCTTATAGCACGCGTATA
Outgoing: 0.744

----------
System: PPARg:RXRa 270nM:90nM, anti-RXR (NR concentration 270 nM, RXRa partner concentration 90 nM)
experiment: PBM binding z-score (relative to random genomic background probes); higher = stronger binding; sequences stand for … in GC…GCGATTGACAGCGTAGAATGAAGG
Use 1 (yes) when the recorded PBM binding z-score is no lower than 4; use 0 (no) when it is lower.

Incoming: Would you say GCTGCTAGGTCAGGTTGTTCAGCTAACGGGTACG shows PBM binding z-score at minimum 4?
Outgoing: 0 (no)

----------
System: LXRa homodimer (NR concentration 270 nM)
experiment: PBM binding z-score (relative to random genomic background probes); higher = stronger binding; sequences stand for … in GC…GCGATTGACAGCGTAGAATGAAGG
Recorded PBM binding z-score determines the label; the label ranges are group A: < -0.1; group B: ≥ -0.1 and < 0.3; group C: ≥ 0.3

# count of solved cases: 4
1) ACTAGTTGGACAGCTGAGGTCACACACAATTCGG :: group C
2) CCAGACAGGTGAGAAGGTAACACAGCCTCGATTA :: group B
3) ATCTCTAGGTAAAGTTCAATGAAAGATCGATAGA :: group C
4) CCTCGGAGGACAAAAGGAGGTCAGAGCTGCCAGA :: group C

Kindly review the next sequence as well.
Incoming: Bin this entry: CCTCGGAGGACAGAAGTTCAGAGCTGTCCGCTTT
Outgoing: group A
